Quick list: melting point per entry.
experimentalReadout: melting point

molecule: Cc1coc2c(CC(C)N)cc(F)cc12.O=C(O)C(=O)O (centres unmarked)
experimentalValue: 201 to 202 °C
//
molecule: CC(N)Cc1cc([N+](=O)[O-])cc2ccoc12.Cl (centres unmarked)
experimentalValue: 216 to 217 °C (dec.)
//
molecule: CC(N)Cc1c(F)ccc2ccoc12.O=C(O)C(=O)O (centres unmarked)
experimentalValue: 200 to 202 °C
//
molecule: CC(N)Cc1ccc(F)c2ccoc12.O=C(O)C(=O)O (centres unmarked)
experimentalValue: 172 to 174 °C
//
molecule: C[C@H](N)Cc1cc(F)cc2cc(Br)oc12.Cl
experimentalValue: 202 to 205 °C
